# Experiment summary: XTT cytotoxicity assay according to ISO 10993
# Measurement parameters: mouse
Assay metric: viability at 6.3 μg/mL (%)

1. CCCCCCCCCCCCOS(=O)(=O)[O-].[Na+] [SDS, Sodium dodecyl sulfate] : 97.2

----------
# Experiment summary: XTT cytotoxicity assay according to ISO 10993
# Measurement parameters: mouse
Assay metric: viability at 250 μg/mL (%)

1. CCCCCCCCCCCCOS(=O)(=O)[O-].[Na+] [SDS, Sodium dodecyl sulfate] : 0.16

----------
# Experiment summary: XTT cytotoxicity assay according to ISO 10993
# Measurement parameters: mouse
Assay metric: viability at 3.1 μg/mL (%)

1. CCCCCCCCCCCCOS(=O)(=O)[O-].[Na+] [SDS, Sodium dodecyl sulfate] : 96.9
